# procedure text: inhibitors of VEEV TC-83 cytopathic effect, confirmation, Vero cells (AID 588727)
# run parameters: VEEV TC-83 cytopathic effect inhibition, at 20 µM; active compounds read high unless noted
About 450 (0.13%) of roughly 350,000 compounds were called active. Only a sample is shown. Measured potencies and affinities stand elsewhere.
endpoint: inhibition (%)

- molecule: "Cc1ccc(-n2c(SCC(=O)O)nc3sc4c(c3c2=O)CC(C)(C)SC4)cc1"
  experimental value: 0.39
- molecule: "CCOC(=O)C1CCCN(c2oc(-c3ccc(OC)cc3)nc2C#N)C1 (stereo not given)"
  experimental value: 2.16
- molecule: "O=C(CSc1ncnc2c1cnn2-c1ccccc1)NC1CCCC1"
  experimental value: 4.66
- molecule: "CCOC(=O)N1CCN(C(=O)CCNS(=O)(=O)c2ccccc2)CC1"
  experimental value: 1.37
- molecule: "O=C(CC(CC(=O)c1ccccc1)c1ccccc1)c1ccccc1"
  experimental value: 1.3
- molecule: "C#CCn1c(S(=O)(=O)Cc2ccc(OC)cc2)nc(-c2ccccc2)c1-c1ccccc1"
  experimental value: 0.79
- molecule: "CCC1CSC(Nc2ccc(C(=O)/C=C/c3cccc(C)c3)cc2)=N1 (stereo not given)"
  experimental value: 32.8
- molecule: "COC(=O)c1cccc(NC(=S)N2CCOCC2)c1"
  experimental value: 0.95
- molecule: "Cc1oc(-c2ccccc2Cl)nc1CSCC(=O)O"
  experimental value: 1.08
- molecule: "CC(C)CC(=O)NCc1ccc2[nH]c3c(c2c1)CCCC3"
  experimental value: 1.23
- molecule: "CCCc1c(C(=O)NNc2cccc(Cl)c2)cnn1-c1ccccc1"
  experimental value: 2.24
- molecule: "COc1ccc(NC(=O)C2CCN(S(=O)(=O)c3cccc4nonc34)CC2)cc1"
  experimental value: 1.18
- molecule: "CC1CCCCN1C(=O)CSc1nc(N)cc(=O)[nH]1 (stereo not given)"
  experimental value: 0.79
- molecule: "COc1cc(NC(=S)NC(=O)c2cc(C)cc(C)c2)ccc1NC(=O)c1cccs1"
  experimental value: 8.93
- molecule: "CC(Sc1nc2ncc(Cl)cc2[nH]1)C(=O)c1c(N)n(C)c(=O)n(C)c1=O (stereo not given)"
  experimental value: 10.7
- molecule: "COc1cc(NC(=S)NC(=O)c2c(OC)cccc2OC)ccc1NC(=O)c1cccs1"
  experimental value: 3.81
- molecule: "FC(F)(F)c1cccc(Cc2noc(CN(Cc3ccccn3)CC3CCCO3)n2)c1 (stereo not given)"
  experimental value: 6.18
- molecule: "CCOC(=O)C1(CCOC)CCN(C(=O)Cc2ccsc2)CC1"
  experimental value: 0.57
- molecule: "Cc1cc(NC(=O)COc2ccccc2C)ccc1NC(=O)c1ccco1"
  experimental value: 2.11
- molecule: "Cc1cc(C(=O)Nc2c(C)nn(Cc3ccccc3Cl)c2C)no1"
  experimental value: 1.51

###

# procedure text: inhibitors of VEEV TC-83 cytopathic effect, confirmation, Vero cells (AID 588727)
# run parameters: VEEV TC-83 cytopathic effect inhibition, at 20 µM; active compounds read high unless noted
Hit rate of the full screen: of about 350,000 compounds, about 450 (0.13%) were called active. These entries were drawn from the full list. Potency and affinity values are given separately.

- molecule: "CCOc1ccc(C(=O)Nc2ccc(N3CCN(C)CC3)cc2)cc1"
  inhibition, %: 2.08
- molecule: "O=C(CCCc1cccs1)Nc1nc2c(s1)CCCC2"
  inhibition, %: 5.78
- molecule: "Cc1ccc(-n2ncc3c(NCc4ccccn4)ncnc32)c(C)c1"
  inhibition, %: 1.72
- molecule: "CC1CCc2nc(NC(=O)Cc3cccs3)sc2C1 (configuration not stated)"
  inhibition, %: 4.77
- molecule: "Cc1ccc(O)c(C(=O)CC(=O)c2ccc(C(C)(C)C)cc2)c1"
  inhibition, %: 2.3
- molecule: "Cc1ccc2oc(=O)cc(/C=C/c3ccccc3)c2c1"
  inhibition, %: 0.72
- molecule: "Fc1ccc(-n2ncc3c(SCc4cccnc4)ncnc32)cc1"
  inhibition, %: 3.59
- molecule: "CC(OC(=O)Cn1cnc2ccccc2c1=O)C(=O)N(C)c1ccccc1 (configuration not stated)"
  inhibition, %: 1.86
- molecule: "CCn1c(C)nc2cc(C(=O)OCCC(F)(F)F)ccc21"
  inhibition, %: 8.24
- molecule: "CCC(=O)Nc1nonc1-c1nc2ccccc2n1CC(C)C"
  inhibition, %: 0.38
- molecule: "S=c1[nH]nc(-c2ccccn2)n1/N=C/c1ccc(-c2ccccc2Cl)o1"
  inhibition, %: 24.7
- molecule: "CCOc1cc(CNCCCN2CCOCC2)ccc1OCC(=O)NC(C)(C)C"
  inhibition, %: 0.44
- molecule: "S=c1[nH]nc(-c2cccc(Cl)c2)n1/N=C/c1ccc(-c2ccccc2Br)o1"
  inhibition, %: 23.7
- molecule: "C=CCNc1n[nH]c(=S)s1"
  inhibition, %: 0.53
- molecule: "Cc1c(C(=O)N(C)CCn2ccnc2C)oc2c(F)cccc12"
  inhibition, %: 1.03
- molecule: "COC(=O)c1sccc1NC(=O)c1c(-c2ccccc2)noc1C"
  inhibition, %: 0.71
- molecule: "Cc1ccc(C(=O)N2CCN(c3ccccn3)CC2)cc1C"
  inhibition, %: 1.05
- molecule: "CCCCOc1ccc(C(=O)Nc2ccc(N3CCN(C(C)=O)CC3)cc2)cc1"
  inhibition, %: 3.29
- molecule: "Cc1n[nH]c(=S)n1/N=C/c1ccc(-c2ccccc2[N+](=O)[O-])o1"
  inhibition, %: 2.62
- molecule: "CC(C)(C)c1ccc(C(=O)CC(=O)c2cc(Cl)ccc2O)cc1"
  inhibition, %: 1.44
- molecule: "O=c1n(Cc2ccccc2Cl)nc2n1-c1ccccc1SC2"
  inhibition, %: 1.6
- molecule: "Cc1ccccc1N1C(=O)C(Cc2ccc(F)cc2)S/C1=C(\\C#N)C(N)=O (configuration not stated)"
  inhibition, %: 0.67
- molecule: "CN(Cc1ccc(O)cc1)C1CCCCC1"
  inhibition, %: 1.27
- molecule: "Clc1ccccc1-c1ccc(/C=N/n2cnnc2)o1"
  inhibition, %: 1.39
- molecule: "COc1ccc(Cl)cc1NC(=O)C(C)N(C)Cc1cccc(Cl)c1Cl (configuration not stated)"
  inhibition, %: 0.94
- molecule: "O=C(Nc1ccc(Cl)cc1)c1nc[nH]c1C(=O)NCCN(CCNC(=O)c1[nH]cnc1C(=O)Nc1ccc(Cl)cc1)CCNC(=O)c1[nH]cnc1C(=O)Nc1ccc(Cl)cc1"
  inhibition, %: 0.19
- molecule: "CC(C)=CCN1CCN(Cc2coc3ccc(C)cc3c2=O)CC1CCO (configuration not stated)"
  inhibition, %: 0.54
- molecule: "CCOC(=O)c1c(-c2cccc(C)c2)csc1NC(=O)C1CC=CCC1C(=O)O (configuration not stated)"
  inhibition, %: 1.95
- molecule: "CN(CC(=O)Nc1cccc(F)c1)C(=O)CCc1nc2cc(S(=O)(=O)N3CCOCC3)ccc2n1C"
  inhibition, %: 0.55
- molecule: "CCc1nnc(NC(=O)C2CC(=O)N(Cc3ccco3)C2)s1 (configuration not stated)"
  inhibition, %: 2.16
- molecule: "Cc1ccc(C(=O)CC(=O)c2cccc(F)c2)c(O)c1"
  inhibition, %: 1.73
- molecule: "CCOC(=O)c1c(-c2ccc(F)cc2)csc1NC(=O)c1c(-c2ccccc2)noc1C"
  inhibition, %: 9.91
